# Measured on: T1, recombinant human EGFR extracellular domain with 6xHis (human, UniProt P00533 25-645)
# T1 construct: In-house produced; also called 6xHis EGFR ECD; soluble human EGFR ECD; not shown: 6xHis tag
# Test name: SPR (BIAcore 2000); IgG captured on anti-human Fc, soluble monovalent EGFR ECD injected
Metric name: t1/2 (h)
// note: answer is a bare numeric in h

For orientation, consider the following solved cases.
Binder: antibody 1260 (antibody, human IgG1, kappa, V domains shown, Chimeric IgG1 kappa) VH: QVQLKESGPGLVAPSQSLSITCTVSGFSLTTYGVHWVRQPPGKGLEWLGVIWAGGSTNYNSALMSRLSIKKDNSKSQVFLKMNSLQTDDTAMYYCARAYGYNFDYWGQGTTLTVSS VL: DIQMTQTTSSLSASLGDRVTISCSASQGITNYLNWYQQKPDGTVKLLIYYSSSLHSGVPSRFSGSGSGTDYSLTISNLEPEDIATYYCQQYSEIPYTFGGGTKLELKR
Metric name: t1/2
Unit spec: h
Result value: 1.23

Binder: antibody 1284 (antibody, human IgG1, kappa, V domains shown, Chimeric IgG1 kappa) VH: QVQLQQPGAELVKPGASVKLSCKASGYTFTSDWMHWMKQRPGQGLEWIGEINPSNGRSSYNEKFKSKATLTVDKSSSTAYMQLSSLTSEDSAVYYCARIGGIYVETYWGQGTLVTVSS VL: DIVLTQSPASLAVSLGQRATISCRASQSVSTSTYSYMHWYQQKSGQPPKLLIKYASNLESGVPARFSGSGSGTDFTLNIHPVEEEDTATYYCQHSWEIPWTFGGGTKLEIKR
Metric name: t1/2
Unit spec: h
Result value: 1.3

Shifting focus to the binder that follows.
Query: Name the recorded t1/2 for antibody 1347 (antibody, human IgG1, kappa, V domains shown, Chimeric IgG1 kappa) VH: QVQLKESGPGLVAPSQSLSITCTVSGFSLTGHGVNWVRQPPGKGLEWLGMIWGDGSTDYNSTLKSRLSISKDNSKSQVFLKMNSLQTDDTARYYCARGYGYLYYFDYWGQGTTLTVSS VL: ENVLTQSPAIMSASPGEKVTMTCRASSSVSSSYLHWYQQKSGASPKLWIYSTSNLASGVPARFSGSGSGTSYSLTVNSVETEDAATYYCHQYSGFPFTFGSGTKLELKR .
Reply: 0.382

From: patent US20110135636A1
